test system: Pseudomonas aeruginosa; test: Antibacterial activity against Pseudomonas aeruginosa at 10 ug/ml; format: functional, organism-based
Activity calls are given as the source filed them. The rule behind the calls is not given here.
measurement.name: Activity

C/C=C1/NC(=O)[C@H](C(C)C)NC(=O)[C@H](O)[C@@H]([C@@H](C)CCCCCCCC(Cl)CC)NC(=O)[C@@H]2CCCN2C(=O)[C@H](CC(N)=O)N(C)C(=O)[C@H]([C@@H](C)OC)NC(=O)[C@@H](C)NC(=O)[C@H](CCC(N)=O)NC(=O)[C@H]([C@@H](C)O)NC(=O)[C@H]([C@@H](C)O)NC1=O (stereo partly drawn): inactive
C/C=C1/NC(=O)[C@H](C(C)C)NC(=O)[C@H](O)[C@@H]([C@@H](C)CCCCCCCCCCC(=O)CCC)NC(=O)[C@@H]2CCCN2C(=O)[C@H](CC(N)=O)N(C)C(=O)[C@H]([C@@H](C)OC)NC(=O)[C@@H](C)NC(=O)[C@H](CCC(N)=O)NC(=O)[C@H](C(C)C)NC(=O)[C@H]([C@@H](C)O)NC1=O: inactive
C/C=C1/NC(=O)[C@H](C(C)C)NC(=O)[C@H](O)[C@@H]([C@@H](C)CCCCCCCC(Cl)CC)NC(=O)[C@@H]2CCCN2C(=O)[C@H](CC(N)=O)N(C)C(=O)[C@H]([C@@H](C)OC)NC(=O)CNC(=O)[C@H](CCC(N)=O)NC(=O)[C@H]([C@@H](C)O)NC(=O)[C@H]([C@@H](C)O)NC1=O (stereo partly drawn): inactive

====

test system: Pseudomonas aeruginosa; assay: Antibacterial activity against Pseudomonas aeruginosa at 10 ug/ml; type: functional, organism-based
Active and inactive are the calls of the source. The rule behind the calls is not given here.
measurement.name: Activity

C/C=C1/NC(=O)[C@H](C(C)C)NC(=O)[C@H](O)[C@@H]([C@@H](C)CCCCCCCCCCC(O)CCC)NC(=O)[C@@H]2CCCN2C(=O)[C@H](CC(N)=O)N(C)C(=O)[C@H]([C@@H](C)OC)NC(=O)[C@@H](C)NC(=O)[C@H](CCC(N)=O)NC(=O)[C@H]([C@@H](C)O)NC(=O)[C@H]([C@@H](C)O)NC1=O (stereo partly drawn): inactive
C/C=C1/NC(=O)[C@H](C(C)C)NC(=O)[C@H](O)[C@@H]([C@@H](C)CCCCCCCCCCC(=O)CCC)NC(=O)[C@@H]2CCCN2C(=O)[C@H](CC(N)=O)N(C)C(=O)[C@H]([C@@H](C)OC)NC(=O)[C@@H](C)NC(=O)[C@H](CCC(N)=O)NC(=O)[C@H]([C@@H](C)O)NC(=O)[C@H]([C@@H](C)O)NC1=O: inactive
C/C=C1/NC(=O)[C@H](C(C)C)NC(=O)[C@H](O)[C@@H]([C@@H](C)CCCCCCCCCCC(=O)CCC)NC(=O)[C@@H]2CCCN2C(=O)[C@H](CC(N)=O)N(C)C(=O)[C@H]([C@@H](C)OC)NC(=O)CNC(=O)[C@H](CCC(N)=O)NC(=O)[C@H]([C@@H](C)O)NC(=O)[C@H]([C@@H](C)O)NC1=O: inactive

Every entry's value here was drawn from ChEMBL document CHEMBL2146392.
